Here, each record is paired with measured folding stability dG data.
B1: 2K2A (parent)
chain: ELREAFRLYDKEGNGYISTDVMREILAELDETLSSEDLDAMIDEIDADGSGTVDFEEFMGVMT

- Variants of: B1
- experiment summary: folding stability dG (cDNA display proteolysis); higher = more stable
- details: PBS, room temperature
Write it as a number; the unit kcal/mol goes unstated.

[
  {
    "sequence variant": "V53Q",
    "folding stability dG / kcal/mol": -0.515
  }
]

Please find the next variant below.
Recorded folding stability dG (variant D39N ): 1.58
